- Assay target: T1, human CD33, full length, on cells (human, UniProt P20138 18-364)
- T1 construct: NIH-3T3 cells stably overexpressing full-length human CD33, or AML lines U937 and Set2 with endogenous CD33; the cell line is named under assay; also called 3T3-huCD33; 3T3-CD33
- T1 sequence (P20138 18-364): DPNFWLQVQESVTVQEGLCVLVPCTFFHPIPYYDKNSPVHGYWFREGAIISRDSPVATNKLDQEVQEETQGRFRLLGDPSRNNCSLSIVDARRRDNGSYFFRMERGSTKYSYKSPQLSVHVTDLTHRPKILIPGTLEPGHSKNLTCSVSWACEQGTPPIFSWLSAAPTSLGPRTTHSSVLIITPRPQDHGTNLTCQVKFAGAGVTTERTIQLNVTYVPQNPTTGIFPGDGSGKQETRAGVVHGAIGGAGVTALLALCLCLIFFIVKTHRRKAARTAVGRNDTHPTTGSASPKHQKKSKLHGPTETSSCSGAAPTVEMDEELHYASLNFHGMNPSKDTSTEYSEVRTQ
- Assay info: flow cytometry, hybridoma supernatant, U937 cells
Kindly state MFI for each of the entries shown.
Give bare numbers, in MFI.

Solved cases below.
Binder | Unit | Test result
1-H19 (antibody, V domains shown, AlivaMab mouse hybridoma antibody; also called 1-H19-A) VH: QVQLQESGPGLVKPSETLSLTCTVSGGSISTYYWSWIRQPAGKGLEWIGRIYTSGNTNYNPSLKSRVTMSVDTSKNQLSLKLRSVTAADTAVYYCARDGDNRNSDAFDIWGQGTMVTVSS VL: QSVLTQPPSVSGAPGQRVTISCTGSSSNIGAGYDVHWYQQLPGTAPKLLIYGNSNRPSGVPDRFSGSKSGTSASLAITGLQAEDEADYYCQSYDRSLSGWVFGGGTKLTVL | MFI | 479000
4-B2 (hybridoma antibody) (antibody, V domains shown, AlivaMab mouse hybridoma antibody; also called 4-B2-A) VH: EVHLLESGGGLVQPGGSLRLSCAASGFIFSSNAMSWVRQAPGKGLEWVSAISGYGGNTYYADSVKGRFTISRDNSKNTLYLQMNSLRAEDTAVYYCAKWGTYIVGATGDYWGQGTLVTVSS VL: QSALTQPPSASGSPGQSVTISCTGTSNDVGGYNYVSWYQQHPGKAPKLLIYEVSKRPSGVPDRFSGSQSGNTASLTVSGLQAEDEADYYCSSYAGSNNWVFGGGTKLTVL | MFI | 152000

Now examine the next entry.
MFI for 3-P14 (hybridoma antibody) (antibody, V domains shown, AlivaMab mouse hybridoma antibody; also called 3-P14-A) VH: EVQLLESGGGLVQPGGSLRLSCAASGFTFSTYAMSWVRQAPGKGLEWVSAISGRGGSTYYTDSVKGRFTISRDNSKNTVSLQMNSLRAEDTAVYYCAGRGDYYYYYGMDVWGQGTTVTVSA VL: DIVMTQSPLSSPVTLGQPASFSCRSSQSLVYSDGNTYLSWLQQRPGQPPRLLIYKISNRFSGVPDRFSGSGAGTDFTLKISRVEAEDVGVYYCMQSTQFPHTFGQGTKLEIK is 248000

Source of measurements: patent US20240262910A1
